# tested_system: human CB1R (Homo sapiens, UniProt P21554)
# Construct: host or cells: CHO cells
# Sequence (P21554 whole entry): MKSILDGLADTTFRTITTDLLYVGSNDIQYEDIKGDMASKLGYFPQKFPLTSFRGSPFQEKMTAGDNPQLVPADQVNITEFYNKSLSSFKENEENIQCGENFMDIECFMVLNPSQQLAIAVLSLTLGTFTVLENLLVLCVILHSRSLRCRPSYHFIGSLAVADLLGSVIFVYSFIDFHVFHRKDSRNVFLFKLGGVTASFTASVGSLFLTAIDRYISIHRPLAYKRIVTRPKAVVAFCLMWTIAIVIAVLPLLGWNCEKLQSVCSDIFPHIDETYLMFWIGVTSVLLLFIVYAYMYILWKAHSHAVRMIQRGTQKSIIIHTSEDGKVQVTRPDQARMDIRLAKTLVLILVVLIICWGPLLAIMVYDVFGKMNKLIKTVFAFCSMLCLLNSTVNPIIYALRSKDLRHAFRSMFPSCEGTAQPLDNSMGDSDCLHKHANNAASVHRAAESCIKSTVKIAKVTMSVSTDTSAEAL
# test_name: CB1R mediated modulation of cAMP synthesis
# Format: cell-based
# test_parameters: CB1 EC50, CHO cells expressing human CB1R; inhibition of forskolin-stimulated cAMP synthesis
Here the recorded pEC50 is given for each entry.
Please treat pEC50 as minus the base-10 logarithm of the molar concentration.

Here are 3 compounds together with their reported answers.
[
  {
    "compound": "Cc1ncc(C(C)(C)c2cc(NC(=O)C(C)(C)S(=O)(=O)C3CCN(S(C)(=O)=O)CC3)on2)s1",
    "pEC50": 4.60
  },
  {
    "compound": "Cc1nnc(C(C)(C)c2cc(NC(=O)C(C)(C)S(=O)(=O)CCCC(F)(F)F)on2)o1",
    "pEC50": 4.64
  },
  {
    "compound": "Cc1ncc(C2(c3cc(NC(=O)C(C)(C)S(=O)(=O)C4CCOCC4)on3)CCCC2)o1 [drawing 84]",
    "pEC50": 4.52
  }
]

Task: Read off the recorded pEC50 for `CCc1ncc(C(C)(C)c2cc(NC(=O)C(C)(C)S(=O)(=O)C3CCN(S(C)(=O)=O)CC3)on2)o1`
Result: 4.58
